# System: in vivo angiogenesis, blood vessel count
# test-details: reduction of blood vessel formation in vivo – HTS, in vivo study (AID 732);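 further: zebrafish embryos dosed at one day post fertilization; 0% = reference inhibitor and 100% = plate mean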
# test-parameters: stronger effect = lower value;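 tested at 30 µM in the well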
Quick reference for vessel count % control among some compounds
Use % as the unit, but write only the number.

// known answers, use as guide
compound	unit-spec	vessel count % control
COc1ccc2c(c1)c(CC(=O)O)c(C)n2Cc1ccc(Cl)cc1	%	109
CCCCCCN(CCCCCC)C(=O)Cc1c(-c2ccc(F)cc2)[nH]c2ccccc12	%	126
C[C@]12CCC(=O)C=C1CC[C@@H]1[C@@H]2CC[C@@]2(C)[C@H]1CC[C@]2(O)C(=O)CO	%	106

Ask: What does the record list as vessel count % control for `COc1cc2ncnc(Nc3cccc(Cl)c3)c2cc1OC` ?
Reply: 34.6

Ask: What does the record list as vessel count % control for `O=c1c(-c2ccc(O)cc2)coc2cc(O)cc(O)c12` ?
Reply: 107

* * *

# Test system: in vivo angiogenesis, blood vessel count
# test-details: reduction of blood vessel formation in vivo – HTS, in vivo study (AID 732);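 further: zebrafish embryos dosed at one day post fertilization; 0% = reference inhibitor and 100% = plate mean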
# test-parameters: stronger effect = lower value;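 tested at 30 µM in the well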
parameter-measured: vessel count % control (%)
Use % as the unit, but write only the number.

// known answers, use as guide
compound	vessel count % control [%]
CC(C)(C(=O)O)c1ccc(C(O)CCCN2CCC(C(O)(c3ccccc3)c3ccccc3)CC2)cc1 (configuration not stated)	116
c1ccc(CCCN2CCN(CCOC(c3ccccc3)c3ccccc3)CC2)cc1	101
O=C1C(c2c(O)[nH]c3c(Cl)cc(Cl)cc23)=Nc2ccccc21	60.2
NC(=O)CI	108
CCSC(=N)N	62.2

Ask: What does the record list as vessel count % control for `CC(=O)c1ccc(S(=O)(=O)NC(=O)NC2CCCCC2)cc1` ?
Reply: 84.8

Ask: What does the record list as vessel count % control for `C[N+](C)(C)CC=O` ?
Reply: 104

Ask: What does the record list as vessel count % control for `C[C@]12CCC(=O)C=C1CC[C@@H]1[C@@H]2CC[C@]2(C)C(=O)CC[C@@H]12` ?
Reply: 102

Ask: What does the record list as vessel count % control for `NCCNS(=O)(=O)c1cccc2cnccc12` ?
Reply: 98.2

Ask: What does the record list as vessel count % control for `O=C(O)CP(=O)(O)O` ?
Reply: 79.8

Ask: What does the record list as vessel count % control for `CC(=O)NNC(=O)N1Cc2ccccc2Oc2ccc(Cl)cc21` ?
Reply: 0

Ask: What does the record list as vessel count % control for `CC1=C[C@@H]2c3cccc4[nH]cc(c34)C[C@H]2N(C)C1` ?
Reply: 81.3

* * *

# Test system: in vivo angiogenesis, blood vessel count
# test-details: reduction of blood vessel formation in vivo – HTS, in vivo study (AID 732);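 further: zebrafish embryos dosed at one day post fertilization; 0% = reference inhibitor and 100% = plate mean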
# test-parameters: stronger effect = lower value;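 tested at 30 µM in the well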
Quick reference for vessel count % control among some compounds
Use % as the unit, but write only the number.

compound	study-system	unit-spec	vessel count % control
Oc1cc2c(c(Cl)c1O)CCNCC2c1ccccc1 (stereo unspecified)	in vivo angiogenesis, blood vessel count	%	111
O=S1(=O)N(CCN2CC=C(c3c[nH]c4cc(F)ccc34)CC2)c2cccc3c2N1CCC3	in vivo angiogenesis, blood vessel count	%	148
NCCS	in vivo angiogenesis, blood vessel count	%	106
CCCn1c(=O)c2[nH]c(-c3ccc(OCC(=O)Nc4ccc(C#N)cc4)cc3)nc2n(CCC)c1=O	in vivo angiogenesis, blood vessel count	%	84.9
COc1ccccc1CNCCCCCCNCCCCCCCCNCCCCCCNCc1ccccc1OC	in vivo angiogenesis, blood vessel count	%	113

Read the next record carefully.
Ask: What does the record list as vessel count % control for OC[C@H]1O[C@@H](n2cnc3c(NCCc4ccccc4)ncnc32)C(O)[C@H]1O (stereo partly specified) ?
Reply: 79.4
